# cond: solid state, amber type II glass, away from light; t0; % area HPLC 240 nm
Recorded ICG purity (HPLC) for the following compounds

| compound | ICG purity (HPLC) [%] |
| --- | --- |
| CC1(C)C(/C=C/C=C/C=C/C=C2\N(CCCCS(=O)(=O)[O-])c3ccc4ccccc4c3C2(C)C)=[N+](CCCCS(=O)(=O)[O-])c2ccc3ccccc3c21.[Na+] [Example 2, Indocyanine green] | 99.21 |
| CC1(C)C(/C=C/C=C/C=C/C=C2\N(CCCCS(=O)(=O)[O-])c3ccc4ccccc4c3C2(C)C)=[N+](CCCCS(=O)(=O)[O-])c2ccc3ccccc3c21.[Na+] [NaBr, Indocyanine green] | 99.95 |
| CC1(C)C(/C=C/C=C/C=C/C=C2\N(CCCCS(=O)(=O)[O-])c3ccc4ccccc4c3C2(C)C)=[N+](CCCCS(=O)(=O)[O-])c2ccc3ccccc3c21.[Na+] [NaOEt, Indocyanine green] | 99.58 |
| CC1(C)C(/C=C/C=C/C=C/C=C2\N(CCCCS(=O)(=O)[O-])c3ccc4ccccc4c3C2(C)C)=[N+](CCCCS(=O)(=O)[O-])c2ccc3ccccc3c21.[Na+] [Example 3, Indocyanine green] | 98.60 |
| CC1(C)C(/C=C/C=C/C=C/C=C2\N(CCCCS(=O)(=O)[O-])c3ccc4ccccc4c3C2(C)C)=[N+](CCCCS(=O)(=O)[O-])c2ccc3ccccc3c21.[Na+] [NaOAc, Indocyanine green] | 99.95 |
| CC1(C)C(/C=C/C=C/C=C/C=C2\N(CCCCS(=O)(=O)[O-])c3ccc4ccccc4c3C2(C)C)=[N+](CCCCS(=O)(=O)[O-])c2ccc3ccccc3c21.[Na+] [NaOAsc, Indocyanine green] | 99.95 |
| CC1(C)C(/C=C/C=C/C=C/C=C2\N(CCCCS(=O)(=O)[O-])c3ccc4ccccc4c3C2(C)C)=[N+](CCCCS(=O)(=O)[O-])c2ccc3ccccc3c21.[Na+] [Example 4, Indocyanine green] | 95.98 |

====

# cond: solid state, amber type II glass, away from light; t0; % area HPLC 240 nm
// label = YES if Total impurities (HPLC) is not less than 0.8%, otherwise NO

| compound | discrete label |
| --- | --- |
| CC1(C)C(/C=C/C=C/C=C/C=C2\N(CCCCS(=O)(=O)[O-])c3ccc4ccccc4c3C2(C)C)=[N+](CCCCS(=O)(=O)[O-])c2ccc3ccccc3c21.[Na+] [Example 3, Indocyanine green] | YES |
| CC1(C)C(/C=C/C=C/C=C/C=C2\N(CCCCS(=O)(=O)[O-])c3ccc4ccccc4c3C2(C)C)=[N+](CCCCS(=O)(=O)[O-])c2ccc3ccccc3c21.[Na+] [NaOAsc, Indocyanine green] | NO |
| CC1(C)C(/C=C/C=C/C=C/C=C2\N(CCCCS(=O)(=O)[O-])c3ccc4ccccc4c3C2(C)C)=[N+](CCCCS(=O)(=O)[O-])c2ccc3ccccc3c21.[Na+] [NaOAc, Indocyanine green] | NO |
| CC1(C)C(/C=C/C=C/C=C/C=C2\N(CCCCS(=O)(=O)[O-])c3ccc4ccccc4c3C2(C)C)=[N+](CCCCS(=O)(=O)[O-])c2ccc3ccccc3c21.[Na+] [Example 4, Indocyanine green] | YES |
| CC1(C)C(/C=C/C=C/C=C/C=C2\N(CCCCS(=O)(=O)[O-])c3ccc4ccccc4c3C2(C)C)=[N+](CCCCS(=O)(=O)[O-])c2ccc3ccccc3c21.[Na+] [NaOEt, Indocyanine green] | NO |
| CC1(C)C(/C=C/C=C/C=C/C=C2\N(CCCCS(=O)(=O)[O-])c3ccc4ccccc4c3C2(C)C)=[N+](CCCCS(=O)(=O)[O-])c2ccc3ccccc3c21.[Na+] [NaBr, Indocyanine green] | NO |

Cited source: patent US20250340739A1
